The reported numbers originate from patent US20080299072A1.

# experimental_system: T1, CCR1 (UniProt P32246 1-355, limits assumed)
# T1 construct: whole, on cells; Membrane preparation of CHO transfectants; also called CCR1-expressing CHO membranes
# T1 sequence (looked up): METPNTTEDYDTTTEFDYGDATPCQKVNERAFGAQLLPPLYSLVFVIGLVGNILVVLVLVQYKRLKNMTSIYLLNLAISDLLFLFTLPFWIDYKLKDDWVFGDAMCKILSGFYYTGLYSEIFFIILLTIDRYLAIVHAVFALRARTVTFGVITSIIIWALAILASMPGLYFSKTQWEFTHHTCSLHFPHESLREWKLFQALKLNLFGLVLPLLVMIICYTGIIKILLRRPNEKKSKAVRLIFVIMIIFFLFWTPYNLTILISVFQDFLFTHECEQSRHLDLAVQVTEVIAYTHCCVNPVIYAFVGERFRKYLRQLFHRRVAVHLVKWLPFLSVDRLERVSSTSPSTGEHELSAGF
# assay_method_text: competition SPA, displacement of 125I-MIP-1α from CCR1 CHO membranes
pIC50: −log10 of the molar value.
Parameter threshold = 7. Response is rule met when pIC50 meets or exceeds it, else rule not met.

- binder: "S1C-5 kDaPEG-RANTES (ligand, Expressed without a leader; also called S1C-5 kDa-RANTES) C(mPEG‑MAL 5 kDa)PYSSDTTPCCFAYIARPLPRAHIKEYFYTSGKCSNPAVVFVTRKNRQVCANPEKKWVREYINSLEMS"
  assigned_label: "rule not met"
- binder: "PEG-2 kDa-RANTES (ligand, also called N-terminal PEGylated wt RANTES (2 kDa)) {mPEG‑ButyrALD 2 kDa}-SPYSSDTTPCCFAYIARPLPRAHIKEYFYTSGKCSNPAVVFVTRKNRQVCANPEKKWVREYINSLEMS"
  assigned_label: "rule met"
- binder: "Mature wildtype (wt) human RANTES (ligand, The mature form was used; also called WT RANTES; CCL5) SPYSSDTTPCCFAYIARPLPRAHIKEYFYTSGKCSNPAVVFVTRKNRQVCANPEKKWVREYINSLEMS"
  assigned_label: "rule met"
- binder: "PEG-5 kDa-RANTES (ligand, also called N-terminal PEGylated wt RANTES (5 kDa)) {mPEG‑ButyrALD 5 kDa}-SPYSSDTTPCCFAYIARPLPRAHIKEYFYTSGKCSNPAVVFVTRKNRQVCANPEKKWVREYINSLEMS"
  assigned_label: "rule met"
